# Protocol: chemical genetic growth profiling, strain panel (AID 1159580);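 note: tested at 20 µM; growth read once vehicle control cultures reached saturation at 30 °C; 1 = growth at the plate median or of vehicle wells; lower values mean less growth of the strain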
# Conditions: S. cerevisiae deletion strains, growth OD, locus YDL134C, strain PPH21, active compounds read low
In all, about 5,500 compounds went through this assay and about 2,000 (36%) were called active. Inconclusive results (about 18%) are left out. The list shows a part of the results.
With a cut-off of 1, any normalized growth strictly below it is called Fulfilled; any normalized growth meeting it or above is called Not fulfilled.

Request: is_below(normalized growth, 1) for COC1(C)CCC2OC2(C)CCC2C1CC2(C)C (stereo not given) ?
Result: Not fulfilled

Request: Entry to check: CC(=O)C1C(=O)CC(c2ccc(Cl)cc2)CC1=O (stereo not given)
Result: Fulfilled

Request: Do the same for COc1c2ccoc2cc2oc(C)cc(=O)c12 please
Result: Fulfilled

----------
# Protocol: chemical genetic growth profiling, strain panel (AID 1159580);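 note: tested at 20 µM; growth read once vehicle control cultures reached saturation at 30 °C; 1 = growth at the plate median or of vehicle wells; lower values mean less growth of the strain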
# Conditions: S. cerevisiae deletion strains, growth OD, locus YER110C
In all, about 5,500 compounds went through this assay and about 2,000 (36%) were called active. Roughly 18% stayed inconclusive and do not appear here. Cut-off read from the data, not from the text of the source: active = normalized growth mostly below about 0.91 (no sharp cut-off); inconclusive = no clear call, values can overlap the other calls; inactive = mostly above about 0.92. The list shows a part of the results.
Result category, one only: label 1 = active, label 0 = inactive

Request: Assay outcome for OC(c1cc(C(F)(F)F)nc2c(C(F)(F)F)cccc12)C1CCCCN1 (centres undefined) : what was it?
Result: label 0

Request: Try the compound NC[C@H]1O[C@H](O[C@H]2C(O[C@@H]3O[C@H](CO)[C@@H](O)[C@H]3O)[C@@H](O)[C@H](N)C[C@@H]2N)[C@H](N)[C@@H](O)[C@@H]1O (some centres undefined)
Result: label 0

Request: Would you kindly repeat that for C#C[C@]1(O)CCC2C3CCC4=Cc5oncc5C[C@]4(C)C3CC[C@@]21C (some centres undefined) ?
Result: label 0

Request: Cc1onc(-c2ccccc2)c1C(=O)NC1C(=O)N2[C@@H]1SC(C)(C)[C@@H]2C(=O)O (some centres undefined)
Result: label 0

Request: How about this compound: NCCc1c[nH]c2ccccc12
Result: label 0

Request: Entry to check: OCCN1CCN(CCCN2c3ccccc3Sc3ccc(C(F)(F)F)cc32)CC1
Result: label 0

Request: And then COc1cc2c(cc1O)CCNC2C (centres undefined) , what is it?
Result: label 0

Request: Moving on to the next compound: CN1CCN(CCCN2c3ccccc3Sc3ccc(C(F)(F)F)cc32)CC1
Result: label 1

Request: Check NC[C@H]1O[C@H](O[C@H]2[C@H](O)[C@@H](O[C@H]3O[C@H](CO)[C@@H](O)[C@H](N)[C@H]3O)[C@H](N)C[C@@H]2N)[C@H](N)C[C@@H]1O too.
Result: label 0

Request: Queued: CC(=O)OCC(=O)[C@@]1(O)CCC2C3CCC4=CC(=O)CC[C@]4(C)C3[C@@H](O)C[C@@]21C (some centres undefined)
Result: label 0

Request: Item: C=C(C)[C@H]1Cc2c(ccc3c2O[C@@H]2COc4cc(OC)c(OC)cc4[C@@H]2C3=O)O1
Result: label 1

Request: Now this one: CC1=NN(c2ccccc2)C(=O)C1
Result: label 0

Request: And for O=C(CCc1ccc(O)cc1)c1c(O)cc(O)cc1O[C@@H]1O[C@H](CO)[C@@H](O)[C@H](O)[C@H]1O ?
Result: label 0

Request: Follow-up entry: CC(=O)Oc1cc2c(c(C)c1OC(C)=O)CC1OC13C2(C)CCC1(C)C2CC(C)(C(=O)O)CCC2(C)CCC13C (centres undefined)
Result: label 0

Request: And the next one, COc1cccc(OC)c1C(=O)N[C@@H]1C(=O)N2[C@@H]1SC(C)(C)[C@@H]2C(=O)O ?
Result: label 0

Request: Also COc1ccc2c(c1OC)OC[C@@H](c1ccc(OC)c(OC)c1OC)C2 ?
Result: label 0

Request: Follow-up entry: CC(=O)OCC1=C(C(=O)O)N2C(=O)[C@@H](NC(=O)CCCC(N)C(=O)O)C2SC1 (some centres undefined)
Result: label 0

Request: Moving on to COc1cc(-c2coc3cc(O[C@@H]4O[C@H](CO)[C@@H](O)[C@H](O)[C@H]4O)c(OC)c(O)c3c2=O)cc(O)c1OC
Result: label 0

Request: Could you do the same for O=c1oc2c(O)c(O)cc3c(=O)oc4c(O)c(O)cc1c4c23 , please?
Result: label 0

Request: And what about the compound CC(=O)N[C@@H](Cc1c[nH]c2ccccc12)C(=O)O ?
Result: label 0

Request: Now the compound CNC(Cc1c[nH]c2ccccc12)C(=O)O (centres undefined)
Result: label 0

Request: Let us now turn to C#CC1(O)CCC2C3CCC4=CC(=O)CCC4(C)C3CCC21C (centres undefined)
Result: label 0

Request: Also, NCC1OC(OC2C(CO)OC(OC3C(O)C(N)CC(N)C3OC3OC(CO)C(O)CC3N)C2O)C(N)C(O)C1OC1OC(CO)C(O)C(O)C1O (centres undefined) please.
Result: label 0

Request: Quick one: CC(=O)CC1CCCCN1 (centres undefined)
Result: label 0

Each recorded value in this set is attributed to PubChem BioAssay AID1159580.
